B1: LINE1-full (parent)
chain: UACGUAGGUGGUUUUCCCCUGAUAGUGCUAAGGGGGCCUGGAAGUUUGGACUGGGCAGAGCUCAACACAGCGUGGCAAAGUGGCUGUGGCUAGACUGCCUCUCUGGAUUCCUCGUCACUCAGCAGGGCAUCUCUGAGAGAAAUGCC

Variants of: B1
Protocol summary: self-cleavage, relative activity (ratio to wild type); higher = more cleavage; in vitro, sequencing; the parent is a self-cleaving ribozyme
In this section, each of the variants is paired with its reported self-cleavage.
Would you mind answering with just the numeric figure?

Variant label | self-cleavage
U14C C28A | 0.74
G55A U115A | 0.21
G27A U29C | 0.79
G8A A117C | 1.03
G27A U62C | 0.08
C56U A78U | 0.15
G114A A140G | 1.14
U45A G114U | 1.46
A6C U115A | 0.8
U81C C146A | 1.8

Alright, here's another variant for you.
Recorded self-cleavage (variant A65U U104A ): 0.14

The measured values listed here are drawn from the RNAGym collection of RNA variant scans (doi:10.7554/elife.90254).
